Just for reference, BindingDB's records for doi:10.1016/j.bmc.2011.08.039 is where these values come from.

STUDY SYSTEM: Sodium- and chloride-dependent GABA transporter 2 (Mus musculus)
Sequence (P31649 whole entry): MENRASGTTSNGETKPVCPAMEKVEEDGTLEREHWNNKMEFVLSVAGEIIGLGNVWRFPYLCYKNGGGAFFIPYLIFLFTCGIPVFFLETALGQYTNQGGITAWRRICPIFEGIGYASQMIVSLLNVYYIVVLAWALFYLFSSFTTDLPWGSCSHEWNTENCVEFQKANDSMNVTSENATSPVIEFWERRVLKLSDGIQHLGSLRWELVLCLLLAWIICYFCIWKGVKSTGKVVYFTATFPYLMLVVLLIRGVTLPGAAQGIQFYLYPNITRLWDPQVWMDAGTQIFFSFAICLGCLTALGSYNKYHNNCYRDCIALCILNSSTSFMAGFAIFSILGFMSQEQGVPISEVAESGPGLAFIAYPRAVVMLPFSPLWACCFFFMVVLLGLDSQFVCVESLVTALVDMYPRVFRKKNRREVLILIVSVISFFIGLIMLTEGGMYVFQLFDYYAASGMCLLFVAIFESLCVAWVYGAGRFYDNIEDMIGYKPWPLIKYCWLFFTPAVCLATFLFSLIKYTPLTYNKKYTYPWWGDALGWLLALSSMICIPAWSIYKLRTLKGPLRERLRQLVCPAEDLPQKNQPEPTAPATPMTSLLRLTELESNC
METHOD SUMMARY: Inhibition of mouse GAT2-mediated [3H]GABA uptake expressed in human HEK cells
pIC50: −log10 of the molar value.
MEASURE: pIC50

A selection of reference data follows.
C(CNCc1nnnn1C1CCCCC1)=C(c1ccccc1)c1ccccc1
4.61
CC(C)(C)CC(C)(C)n1nnnc1CNCCCC(c1ccccc1)c1ccccc1
4.78
c1ccc(Cn2nnnc2CNCCCC(c2ccccc2)c2ccccc2)cc1
4.81
C(CNCc1nnnn1Cc1ccccc1)=C(c1ccccc1)c1ccccc1
4.61
COc1ccccc1C1(O)CCN(CCCn2c3ccccc3c3ccccc32)CC1
5.09

[A] c1ccc(C(CCCNCc2nnnn2C2CCCCC2)c2ccccc2)cc1
[B] CC(C)(C)CC(C)(C)n1nnnc1CNCC=C(c1ccccc1)c1ccccc1
Just tell me: smaller pIC50 value, A or B ? Choose, then provide that item's label.
A
(A: 4.66, B: 4.99)
